assay_system: chemically synthesized HIV protease (Human immunodeficiency virus type 1 group M subtype B, UniProt P12497, C555A/C583A)
Construct: The HIV protease was chemically synthesized; made in house; host or cells: chemical peptide synthesis, no expression host
Assay type: biochemical
measurement_parameters: inhibitor 1 mM
assay_readout: Residual Activity (%) 1 mM
Answers are plain numbers, in %.

Solved cases below.
N[C@@H](Cc1ccccc1)C(=O)N[C@@H](CO)C(=O)N[C@@H](Cc1ccccc1)[C@H](O)C(=O)NCC1CCCCC1 23.8
CC(C)(C)OC(=O)N[C@@H](Cc1ccccc1)C(=O)N[C@@H](CO)C(=O)N[C@@H](Cc1ccccc1)[C@H](O)C(=O)NCC1CCCCC1 47.0
CC(C)(C)OC(=O)N[C@@H](Cc1ccccc1)C(=O)N[C@@H](CC(N)=O)C(=O)N[C@@H](Cc1ccccc1)[C@@H](O)C(=O)NCC1CCCCC1 19.5

I'm hoping you can list Residual Activity (%) 1 mM for every compound here, please.
1. CC[C@H](C)[C@H](NC(=O)[C@@H]1CCCN1C(=O)[C@@H](O)[C@H](Cc1ccccc1)NC(=O)OC(C)(C)C)C(=O)OC1CCCCC1
2. CC(C)(C)OC(=O)N[C@@H](Cc1ccccc1)C(=O)N[C@@H](CO)C(=O)N[C@@H](Cc1ccccc1)[C@@H](O)C(=O)NCC1CCCCC1

Return:
1: 63.9; 2: 33.3
